ASSAY REMARKS: Surface tension and critical micelle concentration of aqueous surfactant solutions
Assay type: physicochemical
CONDITIONS: Table 3; at the CMC, deionized water
Record form. Attribute: Surf. Tens.. Fill in for each entry.

O=C(NCCOC(=O)C(F)(C(F)(F)F)C(F)(F)C(F)(F)C(F)(F)C(F)(F)C(F)(F)C(F)(F)C(F)(F)F)c1cc[n+]([O-])cc1 (centres unmarked) [Example E10] :: 14.5 dynes/cm

// for each molecule in input: emit Surf. Tens.
1. C[N+](C)([O-])CCCNC(=O)C(F)(C(F)(F)F)C(F)(F)C(F)(F)C(F)(F)C(F)(F)C(F)(F)C(F)(F)C(F)(F)C(F)(F)C(F)(F)C(F)(F)F (centres unmarked) [Example E5, C10 F21 CF(CF3)CONH(CH2)3 N^+ (CH3)2 O^-]
2. O=C(OCCc1cccc[n+]1[O-])C(F)(C(F)(F)F)C(F)(F)C(F)(F)C(F)(F)C(F)(F)C(F)(F)C(F)(F)F (centres unmarked) [Example E12]
3. O=C([O-])CC[N+]1(CCCNC(=O)C(F)(C(F)(F)F)C(F)(F)C(F)(F)C(F)(F)C(F)(F)C(F)(F)C(F)(F)C(F)(F)F)CCOCC1 (centres unmarked) [Example K3]
4. C[N+](C)(CCCN(CCC[N+](C)(C)CCC(=O)[O-])C(=O)C(F)(C(F)(F)F)C(F)(F)C(F)(F)C(F)(F)C(F)(F)C(F)(F)C(F)(F)C(F)(F)F)CCC(=O)[O-] (centres unmarked) [Example K4]
5. C[N+](C)(CCCNC(=O)C(F)(C(F)(F)F)C(F)(F)C(F)(F)C(F)(F)C(F)(F)C(F)(F)C(F)(F)C(F)(F)F)CCC(=O)[O-] (centres unmarked) [Example K1]
6. C[N+](C)([O-])CCCNC(=O)C(F)(C(F)(F)F)C(F)(F)C(F)(F)C(F)(F)C(F)(F)C(F)(F)F (centres unmarked) [Example E2, C5 F11 CF(CF3)CONH(CH2)3 N^+ (CH3)2 O^-]

1. 17.1 dynes/cm
2. 18.3 dynes/cm
3. 19.2 dynes/cm
4. 23.6 dynes/cm
5. 16.6 dynes/cm
6. 17.5 dynes/cm

// for each molecule in input: emit Surf. Tens.
1. C[n+]1ccc(C(=O)NCCOC(=O)C(F)(C(F)(F)F)C(F)(F)C(F)(F)C(F)(F)C(F)(F)C(F)(F)C(F)(F)C(F)(F)F)cc1 (centres unmarked) [Example F1]
2. C[N+](C)([O-])CCCN(CCO)C(=O)C(F)(C(F)(F)F)C(F)(F)C(F)(F)C(F)(F)C(F)(F)C(F)(F)C(F)(F)C(F)(F)F (centres unmarked) [Example E8]

["15.0 dynes/cm", "16.6 dynes/cm"]

// for each molecule in input: emit Surf. Tens.
1. C[n+]1ccc(C(=O)NCCOC(=O)C(F)(C(F)(F)F)C(F)(F)C(F)(F)C(F)(F)C(F)(F)C(F)(F)C(F)(F)F)cc1 (centres unmarked) [Example F2]
2. O=C(OCCc1cccc[n+]1[O-])C(F)(C(F)(F)F)C(F)(F)C(F)(F)C(F)(F)C(F)(F)C(F)(F)C(F)(F)C(F)(F)F (centres unmarked) [Example E13]

1. 15.5 dynes/cm
2. 15.0 dynes/cm

###

ASSAY REMARKS: Surface tension and critical micelle concentration of aqueous surfactant solutions
Assay type: physicochemical
CONDITIONS: Table 5; at the CMC, deionized water
Record form. Attribute: Surf. Tens.. Fill in for each entry.
Numbers only, in dynes/cm.

Look over these answered cases.
O=C(O)C(F)(F)C(F)(F)C(F)(F)C(F)(F)C(F)(F)C(F)(F)C(F)(F)F [FC-143, C7 F15 COO^- H4 N^+] :: 21.5
O=C(O)C(F)(C(F)(F)F)C(F)(F)C(F)(F)C(F)(F)C(F)(F)C(F)(F)C(F)(F)C(F)(F)C(F)(F)F (centres unmarked) [Example M17, C8 F17 CF(CF3)COO^- H4 N^+] :: 14.7
O=C(O)C(F)(C(F)(F)F)C(F)(F)C(F)(F)C(F)(F)C(F)(F)C(F)(F)C(F)(F)C(F)(F)F (centres unmarked) [Example M26, C7 F15 CF(CF3)COO^- Na^+] :: 19.4
O=C(O)C(F)(C(F)(F)F)C(F)(F)C(F)(F)C(F)(F)C(F)(F)C(F)(F)C(F)(F)C(F)(F)F (centres unmarked) [Example M30] :: 16.2
O=C(O)C(F)(C(F)(F)F)C(F)(F)C(F)(F)C(F)(F)C(F)(F)C(F)(F)C(F)(F)C(F)(F)F (centres unmarked) [Example M20, C7 F15 CF(CF3)COO^- H3 N^+ C2 H4 OH] :: 15.0
O=C(O)C(F)(C(F)(F)F)C(F)(F)C(F)(F)C(F)(F)C(F)(F)C(F)(F)C(F)(F)C(F)(F)F (centres unmarked) [Example M23, C7 F15 CF(CF3)COO^- K^+] :: 15.0

// for each compound in input: emit Surf. Tens.
1. O=C(O)C(F)(C(F)(F)F)C(F)(F)C(F)(F)C(F)(F)C(F)(F)C(F)(F)C(F)(F)C(F)(F)F (centres unmarked) [Example M14, C7 F15 CF(CF3)COO^- H4 N^+]
2. O=C(O)C(F)(C(F)(F)F)C(F)(F)C(F)(F)C(F)(F)C(F)(F)C(F)(F)C(F)(F)C(F)(F)C(F)(F)F (centres unmarked) [Example M24, C8 F17 CF(CF3)COO^- K^+]

1: 16.5; 2: 16.4
